- Experimental details: supercomplex reporter luminescence per Hoechst cell count – Hoechst nuclei count (AID 1645838);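 further: control cybrid cells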
- Measurement setup: Cells, luminescence/Hoechst cell count ratio, measured here: cell number, Hoechst nuclei count, library stock concentration (final well concentration not given) 46 uM
The whole screen tested about 2,000 compounds, of which about 100 (5%) were called active. This is one part of a sample in which actives are shown more often than they occur.
Metric: cell count
I only need the number, thanks.

{"Compound": "Cc1ccc(C(=O)Nc2ccc(Oc3cc4cnn(C)c4cc3-c3cn[nH]c3)c(F)c2)c(=O)n1-c1ccc(F)cc1", "cell count": 7640}
{"Compound": "CCc1nc(N)nc(N)c1-c1ccc(Cl)cc1", "cell count": 6220}

For the compound shown here, O=C(C(=O)c1ccc(Cl)cc1)c1ccc(Cl)cc1 , give the reported cell count.
6500

Which cell count value is on record for CCOc1cc(CC(=O)NC(CC(C)C)c2ccccc2N2CCCCC2)ccc1C(=O)O (stereo unspecified) ?
4820

Field request: cell count | item: CN1CCc2c(c3ccccc3n2Cc2ccc(C(=O)NO)cc2)C1
5170

So what's the measured cell count for this one? Cc1nc(Nc2n[nH]c3c2CN(C(=O)NC(CN(C)C)c2ccccc2)C3(C)C)c2sccc2n1 (stereo unspecified)
4470

Query: cell count; subject: O=c1c(-c2ccc(O)c(O)c2)coc2cc(O)ccc12
6940

====

- Experimental details: supercomplex reporter luminescence per Hoechst cell count – Hoechst nuclei count (AID 1645838);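 further: control cybrid cells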
- Measurement setup: Cells, luminescence/Hoechst cell count ratio, measured here: cell number, Hoechst nuclei count, library stock concentration (final well concentration not given) 1.67 mM
Screen size: about 2,000 compounds; about 100 (5%) were called active. The sample as a whole holds a higher share of actives than the screen did.
Metric: cell count
Enter the number alone.

Answered cases to consult:
{"Smiles": "CN1CCN(c2ccc(Nc3c4ccccc4nc4ccccc34)cc2)CC1", "Readout value": 6120}
{"Smiles": "CC(C)c1ccccc1OC(=O)NCCc1ccc2ccccc2c1", "Readout value": 7330}
{"Smiles": "Cc1ccc(-c2nn(C(C)(C)C)c3ncnc(N)c23)cc1", "Readout value": 6220}
{"Smiles": "O=c1c(-c2ccc(O)cc2)coc2cc(O)cc(O)c12", "Readout value": 6710}
{"Smiles": "O=c1c(-c2ccc(O)c(O)c2)coc2cc(O)ccc12", "Readout value": 6560}

Moving on to the next molecule.
Recorded cell count for Cn1cc(-c2ccc3c(c2)CCN3C(=O)Cc2cccc(C(F)(F)F)c2)c2c(N)ncnc21 , please?
6230

====

- Experimental details: supercomplex reporter luminescence per Hoechst cell count – Hoechst nuclei count (AID 1645838);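 further: control cybrid cells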;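 on z-score: higher means more mitochondrial supercomplex formation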
- Measurement setup: Cells, luminescence/Hoechst cell count ratio, library stock concentration (final well concentration not given) 80 uM, stronger effect = higher value
Among all 2,000 compounds or so, about 100 (5%) were called active. Only a selection was taken, and actives are over-represented in it overall.
Classify on z-score using low: < -0.1; intermediate: ≥ -0.1 and < 0.8; high: ≥ 0.8

Consider the following illustrative entries.
{"Molecule": "CC(=O)c1ccc2c(c1)c1cc(C(C)=O)ccc1n2CCNC(C)C", "Group label": "intermediate"}
{"Molecule": "NC(N)=NN=Cc1ccc(Cl)c(Cl)c1", "Group label": "low"}
{"Molecule": "COCCOc1ccc2c(c1)ncn2-c1ccc2cccc(N3CCC(N)CC3)c2n1", "Group label": "high"}
{"Molecule": "NC(N)=NCCCC(NC(=O)COCC(c1ccccc1)c1ccccc1)C(=O)O (centres undefined)", "Group label": "low"}

Kindly state the category for this molecule: Cc1cc(C)cc(NC(=O)Nc2ccc(S(N)(=O)=O)cc2)c1
low

Which bin should I file Cc1cn(-c2cc(NC(=O)c3ccc(C)c(Nc4nccc(-c5cccnc5)n4)c3)cc(C(F)(F)F)c2)cn1 under?
low
